Test system: SK-MEL-5 melanoma
Test: NCI-60 one-dose screen, 48 h (100 = growth as untreated, 0 = no growth, -100 = all killed)
Details: 10 µM unless noted
About 83,000 compounds went through this panel and 20% of them were active in at least one assay; those are over-represented in the sample as a whole.
So basically: growth at 60% or higher? That is true (1). Lower than 60%? That is false (0).

{"Compound smiles": "CC(C)(C)C(=O)Nc1nc2c(s1)CCc1ccn(S(=O)(=O)c3ccccc3)c1-2", "Group": "true (1)"}
{"Compound smiles": "CCN(CC)CC(=O)Nc1c(C)cccc1C", "Group": "true (1)"}
{"Compound smiles": "CCN1CCN(Cc2ccc(NC(=O)Nc3cccc(-n4ccc5c(NC(=O)c6ccccc6)nccc54)c3)cc2C(F)(F)F)CC1", "Group": "false (0)"}
{"Compound smiles": "NC(=S)NNC1CCCCC1", "Group": "true (1)"}
{"Compound smiles": "CS(=O)(=O)Nc1cccc(-c2ccc3ncnc(Nc4cncc(Cl)c4)c3c2)c1", "Group": "false (0)"}
{"Compound smiles": "COc1cc(/C=C/C(=O)N2CCC=CC2=O)cc(OC)c1OC", "Group": "true (1)"}
{"Compound smiles": "CCc1c(C)c2cc3c(c(C)c2oc1=O)OCC(=O)N3", "Group": "true (1)"}
{"Compound smiles": "O=C(CSc1nnc(-c2cc3c([nH]c4ccccc43)c(-c3cccc(O)c3)n2)n1-c1ccccc1)c1ccccc1", "Group": "false (0)"}
{"Compound smiles": "O=C(Nc1ccc(-n2cc(-c3ccncc3)c(-c3ccc(O)c(Cl)c3)n2)cc1)c1ccc(Cl)c(C(F)(F)F)c1", "Group": "false (0)"}

====

Test system: OVCAR-8 ovarian
Test: NCI-60 one-dose screen, 48 h (100 = growth as untreated, 0 = no growth, -100 = all killed)
Settings: 10 µM unless noted
This is part of a sample that, as a whole, favours compounds with a hit. Of some 83,000 tested, about 20% had one in any assay.
Assay endpoint: growth (%)

{"Compound smiles": "Nc1ncnc2c1c(C(F)(F)F)cn2[C@@H]1O[C@H](CO)[C@@H](O)[C@H]1O", "Assay endpoint": "growth", "Assay value": 18.1}
{"Compound smiles": "O=C(Nc1ccc(-n2ccc3c(NC(=O)c4ccccc4)ncnc32)cc1)c1ccc(Cl)c(C(F)(F)F)c1", "Assay endpoint": "growth", "Assay value": 3.65}
{"Compound smiles": "Cc1cn(-c2cc(C(=O)Nc3cccc(-n4ccc5c(NC(=O)c6ccccc6)nccc54)c3)cc(C(F)(F)F)c2)cn1", "Assay endpoint": "growth", "Assay value": 4.81}
{"Compound smiles": "c1nc(SC2=NCCN2)c2[nH]cnc2n1", "Assay endpoint": "growth", "Assay value": 41}
{"Compound smiles": "CN(C)c1ccc(/C=c2\\s/c(=C\\C(=O)C(C)(C)C)[nH]c2=O)cc1", "Assay endpoint": "growth", "Assay value": 102}
{"Compound smiles": "Nc1nc(Cl)cc(NCCCCNc2cc(Cl)nc(N)n2)n1", "Assay endpoint": "growth", "Assay value": 99.5}
{"Compound smiles": "O=S(=O)(CCN1CCOCC1)Nc1cncc(-c2ccc3ncnc(Nc4ccc(F)c(Cl)c4)c3c2)c1", "Assay endpoint": "growth", "Assay value": 72.8}
{"Compound smiles": "CCCCNC(=O)Oc1ccc(/C(=C(/CC)Cc2ccccc2)c2ccc(OCCCN(C)C)cc2)cc1", "Assay endpoint": "growth", "Assay value": 87}
{"Compound smiles": "COc1ccccc1N1CCN(CCCOc2ccc(OCCCN3CCN(c4ccccc4OC)CC3)c(C(=O)c3cc(OC)c(OC)c(OC)c3)c2)CC1", "Assay endpoint": "growth", "Assay value": 105}
